- Assay type: physicochemical
- measurement_parameters: pH 2.7
Labelling field: enter YES if recorded chromatographic logP is less than 2. Enter NO if it equals or exceeds that cut-off.

compound: CC(C)NC(=O)C1(C)CC(c2ccc3ncc(-c4cccs4)cc3c2)=NO1 (centres unmarked) [Compound No. 144]
label: NO

Q) Is 2 strictly greater than the compound's reported chromatographic logP? compound: CC1(C(=O)O)CC(c2ccc3ncc(Cl)cc3c2)=NO1 (centres unmarked) [Compound No. II-01]
A) YES

Q) Determine if CCc1cnc2ccc(C3=NOC(C)(C(=O)NC(C)C)C3)cc2c1 (centres unmarked) [Compound No. 259] shows chromatographic logP strictly lower than 2.
A) YES

Q) Hello, is chromatographic logP of the following compound strictly smaller than 2? CC(C)NC(=O)C1(C)CC(c2ccc3ncc(Cl)cc3c2)=NO1 (centres unmarked) [Compound No. 55]
A) NO

Q) For this compound, is chromatographic logP lower than 2? CC1(C(=O)O)CC(c2ccc3ncc(I)cc3c2)=NO1 (centres unmarked) [Compound No. II-09]
A) YES

Q) Hello, I'm reviewing records and need to know if chromatographic logP of C#Cc1cnc2ccc(C3=NOC(C(=O)NCCCOCC)(C(F)F)C3)cc2c1 (centres unmarked) [Compound No. 615] is below 2. Could you check?
A) NO

Q) Consider the compound CC(C)NC(=O)C1(C)CC(c2ccc3ncc(-c4cncnc4)cc3c2)=NO1 (centres unmarked) [Compound No. 258] . Is its chromatographic logP strictly less than 2?
A) YES
